molecular target: Opiate μ (OP3, MOP) (Homo sapiens)
Sequence (P35372 whole entry): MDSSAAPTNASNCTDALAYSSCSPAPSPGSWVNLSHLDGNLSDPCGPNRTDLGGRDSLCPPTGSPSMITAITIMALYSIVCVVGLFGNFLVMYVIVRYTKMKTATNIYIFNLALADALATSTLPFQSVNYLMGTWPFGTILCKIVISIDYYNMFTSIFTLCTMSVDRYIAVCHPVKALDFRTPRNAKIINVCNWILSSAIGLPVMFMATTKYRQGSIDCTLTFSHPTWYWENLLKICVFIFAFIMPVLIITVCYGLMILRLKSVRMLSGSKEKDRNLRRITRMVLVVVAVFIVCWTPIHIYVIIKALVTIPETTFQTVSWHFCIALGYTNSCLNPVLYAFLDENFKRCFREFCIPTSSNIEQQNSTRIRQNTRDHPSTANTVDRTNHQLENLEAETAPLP
measured-parameter: pIC50
Numbers only, as −log10 of the molar value.

**Query** Give pIC50; test system Opiate μ (OP3, MOP) (Homo sapiens); molecule O=S(=O)(c1cccc(F)c1)n1ccc2c(N3CCNCC3)nc3ccccc3c21
**Result** 5.15

* * *

biological target: Sigma σ1 (Homo sapiens, UniProt Q99720)
Sequence (Q99720 whole entry): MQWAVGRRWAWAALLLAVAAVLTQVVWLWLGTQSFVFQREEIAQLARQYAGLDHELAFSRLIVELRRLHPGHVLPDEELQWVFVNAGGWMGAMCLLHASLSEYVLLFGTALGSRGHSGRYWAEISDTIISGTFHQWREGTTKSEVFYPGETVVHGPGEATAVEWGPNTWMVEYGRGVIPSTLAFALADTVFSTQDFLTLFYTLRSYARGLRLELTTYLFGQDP
measured-parameter: Ki (µM)
Answers are plain numbers, in µM.

**Query** Give the reported value of Ki for this record: O=S(=O)(c1cccc(F)c1)n1ccc2c(N3CCNCC3)nc3ccccc3c21
**Result** 3.5

* * *

target: Serotonin 5-HT5A (Homo sapiens, UniProt P47898)
Sequence (P47898 whole entry): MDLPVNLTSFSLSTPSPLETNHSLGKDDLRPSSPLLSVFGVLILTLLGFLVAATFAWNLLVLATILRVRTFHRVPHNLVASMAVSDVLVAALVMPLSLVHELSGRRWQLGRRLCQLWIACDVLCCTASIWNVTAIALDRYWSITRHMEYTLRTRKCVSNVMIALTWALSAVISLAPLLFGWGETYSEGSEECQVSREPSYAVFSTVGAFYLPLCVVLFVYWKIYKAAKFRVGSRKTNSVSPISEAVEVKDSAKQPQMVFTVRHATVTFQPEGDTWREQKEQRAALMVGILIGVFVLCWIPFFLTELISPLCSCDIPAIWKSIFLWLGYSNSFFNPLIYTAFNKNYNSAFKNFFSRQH
measured-parameter: IC50
Field note: include the unit after the figure.

**Query** State, in one line, measured IC50 of O=S(=O)(c1cccc(F)c1)n1ccc2c(N3CCNCC3)nc3ccccc3c21
**Result** 5.58 µM
